- Tested on: ABUTH
- protocol_description: Pre-emergence herbicidal action against ABUTH
- Assay type: in vivo, Abutilon theophrasti
- applied_conditions: Abutilon theophrasti, 504 h, dosage 20 g/ha, scored visually after 3 weeks vs untreated controls, 100% = plants have died, 0% = like control plants, read-out: Pre-emergence action against ABUTH (herbicidal activity in percent)
Kindly state pest or weed control at 20 g/ha for each of the entries shown.
Give bare numbers, in %.

Reference set (4 entries):
CCNC(=O)c1c(C(F)(F)F)ccc(C(=O)Nc2nnnn2C)c1C1CC1 [Example 1-287] ... 100
CCCNC(=O)c1c(C(F)F)ccc(C(=O)Nc2nnnn2CC)c1C [Example 2-344] ... 100
Cn1nnnc1NC(=O)c1ccc(Br)c(C(=O)NC2CC2)c1Br [Example 1-344] ... 90
Cc1c(C(=O)Nc2nnnn2C)ccc(C(F)(F)F)c1C(=O)NC(C)C [Example 1-33] ... 90

Kindly consider the entry below.
Noted pest or weed control at 20 g/ha for CCCNC(=O)c1c(C(F)F)ccc(C(=O)Nc2nnnn2C)c1C [Example 1-345] , tested on ABUTH: 100
